Listed next: entries and their corresponding fold change (FC).
# measured on: Peroxisome proliferator-activated receptor alpha (Homo sapiens) (UniProt Q07869)
# Sequence (whole entry): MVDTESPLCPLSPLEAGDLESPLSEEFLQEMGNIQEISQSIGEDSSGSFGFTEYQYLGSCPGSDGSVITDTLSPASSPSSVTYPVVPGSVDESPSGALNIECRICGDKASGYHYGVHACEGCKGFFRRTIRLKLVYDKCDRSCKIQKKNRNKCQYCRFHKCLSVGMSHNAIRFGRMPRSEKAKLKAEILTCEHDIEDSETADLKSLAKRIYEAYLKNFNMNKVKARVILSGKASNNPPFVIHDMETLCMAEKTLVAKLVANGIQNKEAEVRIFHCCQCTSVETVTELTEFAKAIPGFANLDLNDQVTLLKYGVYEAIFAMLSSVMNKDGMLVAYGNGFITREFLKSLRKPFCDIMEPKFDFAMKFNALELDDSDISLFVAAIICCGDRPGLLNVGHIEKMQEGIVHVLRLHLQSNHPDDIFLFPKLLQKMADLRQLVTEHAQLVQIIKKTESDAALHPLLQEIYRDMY
# protocol notes: Transactivation of GAL4-fused PPARalpha ligand binding domain transfected in human HepG2 cells at 10 uM after 20 hrs by luciferase reporter gene assay relative to control
# Format: cell-based
// return just the number, without any unit appended

Record excerpt, results attached:
compound: O=C(CCCCc1ccc(O[C@@H]2O[C@H](CO)[C@@H](O)[C@H](O)[C@H]2O)c(O)c1)CCc1ccc(O[C@@H]2O[C@H](CO)[C@@H](O)[C@H](O)[C@H]2O)c(O)c1 [PLANTAGINEOSIDE A]
fold change (FC): 1.4

compound: OC[C@H]1O[C@@H](Oc2ccc(CCCC[C@H](O)CCc3ccc(O[C@@H]4O[C@H](CO)[C@@H](O)[C@H](O)[C@H]4O)c(O)c3)cc2O)[C@H](O)[C@@H](O)[C@@H]1O [PLANTAGINEOSIDE B]
fold change (FC): 1.3

compound: OC[C@H]1O[C@@H](O[C@H](CCc2ccc(O)c(O)c2)C[C@H](O)CCc2ccc(O)cc2)[C@H](O)[C@@H](O)[C@@H]1O
fold change (FC): 1.4

Please find the next compound below.
-- ask Given the compound OC[C@H]1O[C@@H](O[C@H](CCc2ccc(O)c(O)c2)C[C@H](O)CCc2ccc(O)c(O)c2)[C@H](O)[C@@H](O)[C@@H]1O , what is its reported fold change (FC)?
-- reply 1.3
